Tested on: P. aeruginosa ATCC 27853
Assay: MIC, broth microdilution (CLSI)
Type: cell-based, Pseudomonas aeruginosa
Details: Pseudomonas aeruginosa, ATCC27853, MHBCA (+), no inhibitor; read-out: MIC
property-measured: MIC

The cases that follow already have their MIC on record.
[[record]]
compound = "N[C@@H](C(=O)N[C@@H]1C(=O)N2C(C(=O)O)=C(Cl)CS[C@H]12)c1ccccc1 [CEF, cefaclor, reference compound]"
test_target = "P. aeruginosa ATCC 27853"
property_measured = "MIC"
value = "> 200 µM"

[[record]]
compound = "O=C(CCC(=O)N(CCCCNC(=O)c1cccc(O)c1O)CCCNC(=O)c1cccc(O)c1O)NCCCCCN(O)C(=O)CCCC(=O)NC(C(=O)NC1C(=O)N2C(C(=O)O)=C(Cl)CSC12)c1ccccc1 (stereo not drawn)"
test_target = "P. aeruginosa ATCC 27853"
property_measured = "MIC"
value = "> 200 µM"


Turning now to a further record.
Exercise: Identify MIC associated with the compound CC1(C)S[C@@H]2[C@H](NC(=O)[C@H](N)c3ccccc3)C(=O)N2[C@H]1C(=O)O [AMP, ampicillin, reference compound]
Key: > 200 µM
